Hey, just so you know, these numbers are from ChEMBL document CHEMBL1134363.

- study_target: Sodium-dependent serotonin transporter (Rattus norvegicus, UniProt P31652)
- Sequence (P31652 whole entry): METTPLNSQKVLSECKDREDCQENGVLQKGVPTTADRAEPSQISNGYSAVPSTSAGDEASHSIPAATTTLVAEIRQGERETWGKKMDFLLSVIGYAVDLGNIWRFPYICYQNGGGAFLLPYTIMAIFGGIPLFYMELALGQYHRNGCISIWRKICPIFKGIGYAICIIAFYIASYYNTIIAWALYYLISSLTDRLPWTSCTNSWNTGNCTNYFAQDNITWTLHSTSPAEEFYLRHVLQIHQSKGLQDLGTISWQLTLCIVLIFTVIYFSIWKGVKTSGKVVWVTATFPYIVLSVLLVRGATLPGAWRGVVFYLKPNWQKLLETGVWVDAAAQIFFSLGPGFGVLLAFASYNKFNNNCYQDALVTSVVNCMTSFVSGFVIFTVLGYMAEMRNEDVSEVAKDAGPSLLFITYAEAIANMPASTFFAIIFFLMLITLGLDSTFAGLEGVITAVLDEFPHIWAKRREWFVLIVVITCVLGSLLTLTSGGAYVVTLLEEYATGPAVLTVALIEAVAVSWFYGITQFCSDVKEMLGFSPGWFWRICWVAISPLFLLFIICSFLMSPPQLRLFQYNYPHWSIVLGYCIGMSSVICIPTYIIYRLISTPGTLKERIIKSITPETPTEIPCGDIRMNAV
- assay_summary: In vitro binding affinity was determined against serotonin reuptake site of rat in presence of [3H]paroxetine radioligand
Define the label as 1 (yes) when Ki is strictly less than 80 nM and as 0 (no) in all remaining cases.

Take a look at these entries with their results.
C1=NCC([C@H]2[C@@H]3Cc4ccccc4C[C@@H]32)N1 (stereo partly specified); 0 (no)
C1=C(Cc2c[nH]cn2)CCc2ccccc21; 0 (no)
C1=NCC(CC2CCc3ccccc3C2)N1 (stereo unspecified); 1 (yes)
C1=NCC([C@@H]2[C@@H]3Cc4ccccc4C[C@@H]32)N1 (stereo partly specified); 0 (no)
NC1=NCC(CC2=Cc3ccccc3CC2)O1 (stereo unspecified); 1 (yes)

Ask | Answer whether the compound Clc1cccc2c1CC(CC1CN=CN1)CC2 (stereo unspecified) has Ki strictly less than 80 nM
Reply | 1 (yes)

Ask | Is the reported Ki for Fc1ccc2c(c1)C=C(CC1CN=CN1)CC2 (stereo unspecified) strictly below 80 nM?
Reply | 1 (yes)

Ask | Hello, is Ki of the following compound strictly smaller than 80 nM? C1=NC[C@@]2(CC[C@@H]3Cc4ccccc4C[C@H]3C2)N1 (relative stereo)
Reply | 1 (yes)

Ask | Regarding Cc1cc2c(cc1C)CC(CC1CN=CN1)C2 (stereo unspecified) , kindly confirm whether its Ki is beneath 80 nM.
Reply | 1 (yes)

Ask | Take the compound C1=NC[C@]2(CC[C@@H]3Cc4ccccc4C[C@H]3C2)N1 (relative stereo) and say whether its Ki is less than 80 nM.
Reply | 1 (yes)

Ask | Bench note: check whether CCC1(c2cnc[nH]2)Cc2ccccc2C1 [ATIPAMEZOLE] shows Ki below 80 nM
Reply | 0 (no)

Ask | Strictly below 80 nM: is that where Ki of CC1(C)CC(CC2CN=CN2)=Cc2ccccc21 (stereo unspecified) sits?
Reply | 0 (no)

Ask | Input C1=NC[C@H](C2CC23Cc2ccccc2C3)N1 (stereo partly specified) ; condition: Ki strictly below 80 nM. Does it hold?
Reply | 1 (yes)

Ask | In plain terms, does C1=NCC(CC2=Cc3ccccc3CC2)N1 (stereo unspecified) come in under 80 nM for Ki?
Reply | 1 (yes)

Ask | Criterion: Ki strictly below 80 nM. Is it met by FC(F)(F)c1ccc2c(c1)C=C(CC1CN=CN1)CC2 (stereo unspecified) ?
Reply | 0 (no)

Ask | Hello, I'm reviewing records and need to know if Ki of Clc1cccc2c1C=C(CC1CN=CN1)CC2 (stereo unspecified) is below 80 nM. Could you check?
Reply | 1 (yes)

Ask | Item C1=NC[C@H](C[C@]23CCc4ccccc4C2C3)N1 (stereo partly specified) : Ki beneath 80 nM, strictly?
Reply | 1 (yes)

Ask | Strictly below 80 nM: is that where Ki of Fc1ccc2oc(CC3CN=CN3)cc2c1 (stereo unspecified) sits?
Reply | 0 (no)

Ask | Criterion: Ki strictly below 80 nM. Is it met by C[C@@]1(C[C@@H]2CN=CN2)CCc2ccccc2C1 ?
Reply | 1 (yes)

Ask | Hello, is Ki of the following compound strictly smaller than 80 nM? Cc1ccc2c(c1)C=C(CC1CN=C(N)O1)CC2 (stereo unspecified)
Reply | 0 (no)

Ask | Is Ki of NC1=NC(CC2=Cc3ccccc3CC2)CN1 (stereo unspecified) strictly below 80 nM?
Reply | 1 (yes)

Ask | Ki strictly < 80 nM for this compound? Fc1cc2c(cc1F)CC(CC1CN=CN1)C2 (stereo unspecified)
Reply | 1 (yes)

Ask | Could you please tell me whether Ki recorded for Fc1cccc2c1CC(CC1CN=CN1)C2 (stereo unspecified) is less than 80 nM?
Reply | 0 (no)

Ask | Quick check: does C1=NC[C@@H](C[C@]23CCc4ccccc4C2C3)N1 (stereo partly specified) have Ki under 80 nM?
Reply | 1 (yes)
